tested on: Tyrosine-protein kinase ABL1 (Homo sapiens), P00519 [E255K]; details: at 1 µM
Mark 1 (yes) for reported inhibition of 10% or greater; mark 0 (no) for anything smaller.

Reported inhibition at or above 10%? "CCn1c(-c2nonc2N)nc2c(C#CC(C)(C)O)nc(CN3CCCC3)cc21"
0 (no)

* * *

Target: Serine/threonine-protein kinase 4 (Homo sapiens) (UniProt Q13043);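 further: mean inhibition of MST1, part of the GSK PKIS dataset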
Sequence (whole entry): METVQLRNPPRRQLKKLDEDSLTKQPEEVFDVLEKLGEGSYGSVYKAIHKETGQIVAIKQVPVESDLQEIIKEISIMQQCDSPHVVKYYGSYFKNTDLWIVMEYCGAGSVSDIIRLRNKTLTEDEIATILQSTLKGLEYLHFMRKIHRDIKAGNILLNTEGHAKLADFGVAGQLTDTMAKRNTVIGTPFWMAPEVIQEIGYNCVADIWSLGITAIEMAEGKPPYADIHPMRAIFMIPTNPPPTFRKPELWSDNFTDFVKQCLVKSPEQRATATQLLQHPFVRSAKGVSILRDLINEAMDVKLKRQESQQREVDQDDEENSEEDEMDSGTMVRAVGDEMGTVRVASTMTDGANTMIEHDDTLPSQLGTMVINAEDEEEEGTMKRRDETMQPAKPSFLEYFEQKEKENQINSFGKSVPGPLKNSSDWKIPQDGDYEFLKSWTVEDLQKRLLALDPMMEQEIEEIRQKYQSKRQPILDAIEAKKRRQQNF
Details: at 1 µM
Parameter: inhibition. Scope: all listed entries.
Express it in %; write the number only.

Study these solved cases before continuing.
{"compound": "O=C1NC(=O)C(c2ccccc2Cl)=C1Nc1cccc(O)c1", "target-desc": "Serine/threonine-protein kinase 4 (Homo sapiens) (UniProt Q13043)", "units-of-measure": "%", "inhibition": 27.2}
{"compound": "Fc1cccc(COc2ccc(Nc3ncnc4sc(-c5cccs5)cc34)cc2Cl)c1", "target-desc": "Serine/threonine-protein kinase 4 (Homo sapiens) (UniProt Q13043)", "units-of-measure": "%", "inhibition": 0.3}
{"compound": "CS(=O)(=O)CCN(CC#N)Cc1ccc(-c2ccc3ncnc(Nc4ccc(OCc5cccc(F)c5)c(Cl)c4)c3c2)o1", "target-desc": "Serine/threonine-protein kinase 4 (Homo sapiens) (UniProt Q13043)", "units-of-measure": "%", "inhibition": 0.1}
{"compound": "O=C1NC(=O)C(c2cccc(Cl)c2)=C1Nc1ccc(O)c(Cl)c1", "target-desc": "Serine/threonine-protein kinase 4 (Homo sapiens) (UniProt Q13043)", "units-of-measure": "%", "inhibition": 75.2}
{"compound": "CCN1CCC(CC(=O)Nc2n[nH]c3nc(-c4cccs4)c(Br)cc23)CC1", "target-desc": "Serine/threonine-protein kinase 4 (Homo sapiens) (UniProt Q13043)", "units-of-measure": "%", "inhibition": -4.38}

Request - read-out inhibition | tested on Serine/threonine-protein kinase 4 (Homo sapiens) (UniProt Q13043) | compound "CCCN1CCC=C(c2ccc(Nc3nc(Nc4ccccc4C(N)=O)c4cc[nH]c4n3)c(C)c2)C1"
42.5

Hello, I am looking for reported inhibition with Serine/threonine-protein kinase 4 (Homo sapiens) (UniProt Q13043) for "COc1cc2ncn(-c3cc(O[C@@H](C)c4ccccc4Cl)c(C(N)=O)s3)c2cc1OC" . Could you help?
40.3

Identify the measured inhibition of "COC(=O)Nc1nc2cc(Oc3ccc(NC(=O)Nc4cccc(C(=O)O)c4)cc3)ccc2[nH]1" for Serine/threonine-protein kinase 4 (Homo sapiens) (UniProt Q13043).
11.2

What reported inhibition corresponds to "COc1cc2ncn(-c3cc(O[C@H](C)c4ccccc4Cl)c(C(N)=O)s3)c2cc1OC" on Serine/threonine-protein kinase 4 (Homo sapiens) (UniProt Q13043)?
77

Form field: inhibition recorded for "CCn1c(-c2nonc2N)nc2ccncc21" with Serine/threonine-protein kinase 4 (Homo sapiens) (UniProt Q13043) (enter value)
1.83

Tell me reported inhibition for "COc1ccc(-c2ccncc2)cc1C(N)=O" , tested with Serine/threonine-protein kinase 4 (Homo sapiens) (UniProt Q13043).
7.82

Fill in the recorded inhibition for this compound, with Serine/threonine-protein kinase 4 (Homo sapiens) (UniProt Q13043) as test system: "NS(=O)(=O)c1cccc(-c2ccc3c(NC(=O)C4CC4)n[nH]c3c2)c1"
-4.72

Notebook entry, Serine/threonine-protein kinase 4 (Homo sapiens) (UniProt Q13043) assay: inhibition of "CS(=O)(=O)Nc1ccc(N/C=C2\C(=O)Nc3ccccc32)cc1" = ?
51.9

Requested read-out inhibition, target or system Serine/threonine-protein kinase 4 (Homo sapiens) (UniProt Q13043), entry "O=C1NC(=O)C(c2ccc(Cl)cc2)=C1Nc1ccc(Cl)c(C(=O)O)c1"
-3.6

Record lookup: for Serine/threonine-protein kinase 4 (Homo sapiens) (UniProt Q13043), what inhibition belongs to "COc1cc(C=NNc2ncnc3c2cnn3-c2ccccc2)ccc1O" ?
11.5

Tell me reported inhibition for "Cc1cc(O)cc(C)c1/C=C/c1cncc(-c2nn[nH]n2)c1" , tested with Serine/threonine-protein kinase 4 (Homo sapiens) (UniProt Q13043).
9.22

* * *

tested on: Tyrosine-protein kinase ABL1 (Homo sapiens), P00519 [M351T]; conditions: at 1 µM
property-label: inhibition (%)
Value expressed in %; do not type the unit.

These recorded examples may help you get a feel for the data.
{"compound": "COc1cc(C=NNc2ncnc3c2cnn3-c2ccccc2)ccc1O", "units-of-measure": "%", "observed-result": 88.5}
{"compound": "COc1ccc(-c2coc3ncnc(N)c23)cc1", "units-of-measure": "%", "observed-result": 8.4}
{"compound": "Nc1nc(-c2ccccn2)c(-c2ccc3ncccc3n2)s1", "units-of-measure": "%", "observed-result": 3.17}
{"compound": "O=C(Nc1n[nH]c2nc(-c3ccco3)c(Br)cc12)C1CC1", "units-of-measure": "%", "observed-result": 29.8}
{"compound": "COc1cc2ncn(-c3cc(O[C@@H](C)c4ccccc4Cl)c(C(N)=O)s3)c2cc1OC", "units-of-measure": "%", "observed-result": 29.7}

Notebook entry, Tyrosine-protein kinase ABL1 (Homo sapiens), P00519 [M351T] assay: inhibition of "O=C1NC(=O)C(c2cccc(Cl)c2)=C1Nc1ccc(O)c(Cl)c1" = ?
1.15

Hello, I am looking for reported inhibition with Tyrosine-protein kinase ABL1 (Homo sapiens), P00519 [M351T] for "NC(=O)c1ccc(-c2nc(-c3ccccn3)c(-c3ccc4c(c3)OCO4)[nH]2)cc1" . Could you help?
3.86

Kindly state the measured inhibition obtained for "COc1ccc(-c2ccncc2)cc1C(N)=O" with Tyrosine-protein kinase ABL1 (Homo sapiens), P00519 [M351T].
-0.45

So what inhibition did "CCn1c(-c2nonc2N)nc2c(C#CC(C)(C)O)nc(CN3CCCC3)cc21" get with Tyrosine-protein kinase ABL1 (Homo sapiens), P00519 [M351T]?
2.83

Observed inhibition on Tyrosine-protein kinase ABL1 (Homo sapiens), P00519 [M351T] for "COc1ccccc1Nc1ncc(-c2ccccc2)o1" , please.
10.8

Request body: readout inhibition, system Tyrosine-protein kinase ABL1 (Homo sapiens), P00519 [M351T], query "CS(=O)(=O)CCNCc1ccc(-c2ccc3ncnc(Nc4ccc(OCc5ccccc5)c(Cl)c4)c3c2)o1" . Return the value.
2.85

// lookup inhibition | system=Tyrosine-protein kinase ABL1 (Homo sapiens), P00519 [M351T] | key= "COC(=O)Nc1nc2cc(Oc3cccc(NC(=O)Nc4cc(C(F)(F)F)ccc4F)c3)ccc2[nH]1"
69.3

Param readout= inhibition; system= Tyrosine-protein kinase ABL1 (Homo sapiens), P00519 [M351T]; entry= "CCN1CCC(CC(=O)Nc2n[nH]c3nc(-c4cccs4)c(Br)cc23)CC1" ; returns value.
4.95

* * *

Reported inhibition by item:
biological target: Casein kinase I isoform alpha (Homo sapiens) (UniProt P48729); conditions: at 0.1 µM;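 further: values are the mean percent inhibition of CK1a, averaged over measurements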
Sequence (P48729 2-337 limits assumed): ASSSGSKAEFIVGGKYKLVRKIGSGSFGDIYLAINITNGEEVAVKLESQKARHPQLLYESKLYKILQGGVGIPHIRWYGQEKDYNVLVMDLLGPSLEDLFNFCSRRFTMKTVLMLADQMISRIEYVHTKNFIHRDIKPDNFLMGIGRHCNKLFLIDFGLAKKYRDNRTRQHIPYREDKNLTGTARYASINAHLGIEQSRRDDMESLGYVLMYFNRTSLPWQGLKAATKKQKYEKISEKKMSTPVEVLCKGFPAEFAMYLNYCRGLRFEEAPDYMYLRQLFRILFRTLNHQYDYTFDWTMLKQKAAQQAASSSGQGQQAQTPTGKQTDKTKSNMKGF
Supply the numeric figure in %, leaving out any unit text.

The examples below pair each entry with its known result.
{"molecule": "CCCN1CCC=C(c2ccc(Nc3nc(Nc4ccccc4C(N)=O)c4cc[nH]c4n3)c(C)c2)C1", "observed-result": 8.97}
{"molecule": "NS(=O)(=O)c1cccc(-c2ccc3c(NC(=O)C4CC4)n[nH]c3c2)c1", "observed-result": 4.11}
{"molecule": "CC(=O)Nc1cccc(C#Cc2cncnc2Nc2ccc(OCc3cccc(F)c3)c(Cl)c2)n1", "observed-result": 0.01}
{"molecule": "NC(=O)c1ccc(-c2nc(-c3ccccn3)c(-c3ccc4c(c3)OCO4)[nH]2)cc1", "observed-result": 13.1}
{"molecule": "CC1=C(C(=O)Nc2ccc3[nH]ncc3c2)C(c2ccc(Cl)c(Cl)c2)CC(=O)N1 (stereo not given)", "observed-result": -1.74}
{"molecule": "CNC(=O)c1cncc(/C=C/c2c(Cl)cccc2Cl)c1", "observed-result": 2.31}
{"molecule": "CS(=O)(=O)CCNCc1nc(-c2ccc3ncnc(Nc4ccc(F)c(Cl)c4)c3c2)cs1", "observed-result": 0.89}
{"molecule": "Cc1cc(O)cc(C)c1/C=C/c1cncc(-c2nn[nH]n2)c1", "observed-result": 7.75}
{"molecule": "CCn1c(-c2nonc2N)nc2c(C#CC(C)(C)O)nc(CN3CCCC3)cc21", "observed-result": -1.27}
{"molecule": "Nc1ncnc2occ(-c3ccc(NC(=O)Nc4cc(C(F)(F)F)cc(C(F)(F)F)c4)cc3)c12", "observed-result": -0.62}

Fill in the blank: the reported inhibition of "CS(=O)(=O)CCN(CC#N)Cc1ccc(-c2ccc3ncnc(Nc4ccc(OCc5cccc(F)c5)c(Cl)c4)c3c2)o1" is ____.
1

Give its inhibition value. Item: "NC(=O)c1cccc(Nc2nccc(Nc3cccc4[nH]ncc34)n2)c1"
1.36

Consider the molecule shown here: "CCN1CCC(CC(=O)Nc2n[nH]c3nc(-c4cccs4)c(Br)cc23)CC1" What is its recorded inhibition?
0.63

Could you tell me which inhibition is on file for "O=C1Nc2ccc(C(=O)c3ccco3)cc2C1=Cc1cc(Cl)c(O)c(Cl)c1" ?
-0.89

For "O=C1NC(=O)C(N2CCc3ccccc32)=C1c1ccc(Cl)cc1" , what is its reported inhibition?
4.4

# input molecule: "NS(=O)(=O)c1ccc(N/N=C2\C(=O)Nc3ccc(C(=O)NCCc4c[nH]cn4)cc32)cc1" ; wanted: its inhibition
9.71

Recorded inhibition for "COc1ccc(-c2ccncc2)cc1C(N)=O" , please?
4.33

I'd like to know its inhibition. The molecule in question is "Cc1cccc(-c2n[nH]cc2-c2ccc3ncccc3n2)n1"
1.85

For the molecule "O=C(Nc1n[nH]c2nc(-c3ccco3)c(Br)cc12)C1CC1" , what inhibition is on record?
1.36

Request the reported inhibition associated with COc1ccc2cc(-c3c(-c4ccncc4)nc(-c4ccc([S+](C)[O-])cc4)n3C)ccc2c1 (stereo not given)
1.18
